Hey, just so you know, these numbers are from patent US8563542B2.

# targetUnderTest: PLK1 (Homo sapiens, UniProt P53350)
# Sequence (P53350 whole entry): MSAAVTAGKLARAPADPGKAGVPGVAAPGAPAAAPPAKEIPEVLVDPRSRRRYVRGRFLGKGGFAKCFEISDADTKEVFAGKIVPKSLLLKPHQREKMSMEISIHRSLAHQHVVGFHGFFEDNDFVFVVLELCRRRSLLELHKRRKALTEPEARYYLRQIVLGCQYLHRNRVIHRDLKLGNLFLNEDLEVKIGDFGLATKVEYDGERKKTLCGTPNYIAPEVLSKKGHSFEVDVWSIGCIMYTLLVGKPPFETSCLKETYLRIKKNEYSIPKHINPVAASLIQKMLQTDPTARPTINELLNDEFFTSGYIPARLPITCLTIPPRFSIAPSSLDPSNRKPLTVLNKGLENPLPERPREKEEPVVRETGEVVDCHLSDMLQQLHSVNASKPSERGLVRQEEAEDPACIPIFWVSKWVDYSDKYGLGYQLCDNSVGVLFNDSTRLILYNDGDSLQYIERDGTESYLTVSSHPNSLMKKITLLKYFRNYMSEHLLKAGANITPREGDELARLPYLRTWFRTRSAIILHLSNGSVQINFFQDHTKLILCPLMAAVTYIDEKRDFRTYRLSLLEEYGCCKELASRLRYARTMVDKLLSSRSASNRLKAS
# assay: PLK1 protein kinase assay (CDC25C phosphorylation, [γ-32P]-ATP)
# Format: biochemical
# runParameters: Table 2, PLK1 IC50; class symbols; read-out: PLK1 IC50
Parameter IC50: see the listing below.

Solved entries (count: 5):
[[record]]
compound = "COc1cc(C(=O)NC2CCN(Cc3ccccc3)CC2)ccc1Nc1ncc2c(n1)N(C1CCCC1)CC(C)(C)C(=O)N2C [compound 197]"
readouttype = "IC50"
result = "< 0.1 µM"

[[record]]
compound = "Cc1cc(Nc2ncc3c(n2)N(C2CCCC2)CCC(=O)N3C)ccc1NC(=O)C1CC1 [compound 179]"
readouttype = "IC50"
result = "< 10 µM"

[[record]]
compound = "CN1C(=O)CCN(C2CCCC2)c2nc(Nc3ccc(C(N)=O)cc3)ncc21 [compound 83]"
readouttype = "IC50"
result = "< 1 µM"

[[record]]
compound = "COc1cc(C(=O)NCCCN(C)C)ccc1Nc1ncc2c(n1)N(C1CCCC1)CC1(CC1)C(=O)N2C [compound 183]"
readouttype = "IC50"
result = "< 0.1 µM"

[[record]]
compound = "COc1cc(C(=O)O)ccc1Nc1ncc2c(n1)N(CC1CC1)CC1(CC1)C(=O)N2C [compound 230]"
readouttype = "IC50"
result = "< 1 µM"


Would you mind telling me what IC50 value was observed for COc1cc(C(=O)NCCCCO)ccc1Nc1ncc2c(n1)N(C1CCCC1)CCC(=O)N2C [compound 151] ? < 1 µM

Would you mind telling me what IC50 value was observed for COc1cc(C(=O)NCCOCCO)ccc1Nc1ncc2c(n1)N(C1CCCC1)CCC(=O)N2C [compound 168] ? < 1 µM

Would you mind telling me what IC50 value was observed for COc1cc(C(=O)NC2CCN(C(C)C)CC2)ccc1Nc1ncc2c(n1)N(C1CCCC1)CCC(=O)N2C [compound 344] ? < 0.1 µM

Would you mind telling me what IC50 value was observed for CN1C(=O)CCN(C2CCCC2)c2nc(NCc3ccc(-c4csnn4)cc3)ncc21 [compound 132] ? < 10 µM

Would you mind telling me what IC50 value was observed for COc1cc(C(=O)NC2CCN(C)CC2)ccc1Nc1ncc2c(n1)N(C1CC1)CCC(=O)N2C [compound 207] ? < 10 µM
